Tgt: CETP (Homo sapiens)
Construct: from tissue; host or cells: human plasma from normal volunteers
Assay Notes: CETP in vitro assay (Amersham kit TRKQ7005; modified protocol in human plasma, [3H]CE-HDL transfer)
Assay type: biochemical
Assay Setup: 1 μM compound; read-out: % Inhibition @ 1 μM
Measurement Label: inhibition at 1 µM (%)

{"columns": ["Compound", "Units Of Measure", "inhibition at 1 µM"],
 "data": [
  ["OC(CN1c2cccc(-c3cccc(Cl)c3)c2CCC1c1cccc(OC(F)(F)C(F)F)c1)C(F)(F)F (stereo not drawn)", "%", 55]
]}

[A] OC(CN1c2cccc(-c3cccc(OC(F)(F)F)c3)c2CCC1c1cccc(C(F)(F)F)c1)C(F)(F)F (stereo not drawn)
[B] C[C@H](O)CN1c2cccc(-c3cccc(OC(F)(F)F)c3)c2CC[C@H]1c1cccc(OC(F)(F)C(F)F)c1
[C] O[C@@H](CN1c2cccc(-c3cccc(OC(F)(F)F)c3)c2CC[C@H]1c1cccc(OC(F)(F)C(F)F)c1)C(F)(F)F
[D] COC[C@@H](O)CN1c2cccc(-c3cccc(OC(F)(F)F)c3)c2CC[C@H]1c1cccc(OC(F)(F)F)c1
[E] COc1cccc(-c2cccc3c2CC[C@@H](c2cccc(OC(F)(F)F)c2)N3C[C@@H](C)O)c1
In: Reorder the items by inhibition at 1 µM, least to greatest. Respond with the label ranking, as requested.
Out: D, E, C, B, A

====

Tgt: CETP (Homo sapiens, UniProt P11597)
Construct: from tissue; host or cells: human plasma from normal volunteers
Sequence (P11597 18-493): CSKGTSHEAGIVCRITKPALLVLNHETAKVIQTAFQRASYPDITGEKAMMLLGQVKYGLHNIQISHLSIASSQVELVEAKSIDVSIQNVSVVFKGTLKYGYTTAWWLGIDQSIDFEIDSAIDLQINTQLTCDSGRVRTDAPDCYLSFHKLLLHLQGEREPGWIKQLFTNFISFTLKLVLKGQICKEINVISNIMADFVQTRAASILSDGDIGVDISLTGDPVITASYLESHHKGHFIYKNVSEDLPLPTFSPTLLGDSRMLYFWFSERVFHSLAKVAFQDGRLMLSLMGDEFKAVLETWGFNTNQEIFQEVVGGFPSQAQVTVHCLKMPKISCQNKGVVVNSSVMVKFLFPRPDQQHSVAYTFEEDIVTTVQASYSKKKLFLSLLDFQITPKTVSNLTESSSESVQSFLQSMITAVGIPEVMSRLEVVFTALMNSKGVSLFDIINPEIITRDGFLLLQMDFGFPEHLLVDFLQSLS
Assay Notes: CETP in vitro assay (Amersham kit TRKQ7005; modified protocol in human plasma, [3H]CE-HDL transfer)
Format: biochemical
Assay Setup: from plots of % control versus compound concentration
pIC50: −log10 of the molar value.
Measurement Label: pIC50

Before answering, review these 2 worked examples.
{"columns": ["Molecule", "Readout Number"],
 "data": [
  ["N#Cc1cccc(C2CCc3c(-c4cccc(OC(F)(F)F)c4)cccc3N2CC(O)C(F)(F)F)c1 (stereo not shown)", 6.39],
  ["COc1cccc(C2CCc3c(-c4cccc(OC(F)(F)F)c4)cccc3N2CC(O)C(F)(F)F)c1 (stereo not shown)", 6.24]
]}

[A] OC(CN1c2cccc(Oc3cccc(Cl)c3Cl)c2CCC1c1cccc(OC(F)(F)C(F)F)c1)C(F)(F)F (stereo not shown)
[B] O[C@H](CN1c2cccc(-c3cccc(OC(F)(F)F)c3)c2CC[C@H]1c1cccc(OC(F)(F)C(F)F)c1)C(F)(F)F
In: For this pair, A and B , which shows a numerically higher pIC50? Give the label under which the chosen entry appears.
Out: B
(B: 7.52, A: 6.40)

Reference for the values: patent US7928238B2
